Data provenance: PubChem BioAssay AID1919001

# Test system: 699152-130-R-J1-PDC complex spheroid growth
# protocol: Anticancer human tumor 699152-130-R-J1-PDC patient-derived pancreatic carcinoma cell line growth inhibition [AhR]
# experimental.context: second compound 0.316 µM; first compound 0.000316 µM; active compounds read low
# Excerpt: Multicellular complex tumor spheroid response to aryl hydrocarbon receptor antagonists in combination with a variety of drugs and investigational agents in selected tumor cell lines […] Compounds. […] If the clinical Cmax for an agent had not been determined, the highest concentration tested was 10 microM (Table 1). […]
outcome.measure: viability, T/C (%)
Hi! Could you send only the number? It should be in %, unit omitted.

Study these solved cases before continuing.
[
  {
    "compound": "CC[C@@]1(O)C(=O)OCc2c1cc1n(c2=O)Cc2cc3c(CN(C)C)c(O)ccc3nc2-1 + Cc1ccccc1N=Nc1ccc(NC(=O)c2ccnn2C)c(C)c1",
    "viability, T/C, %": 97.9
  },
  {
    "compound": "CC[C@@]1(O)C(=O)OCc2c1cc1n(c2=O)Cc2cc3c(CN(C)C)c(O)ccc3nc2-1 + Cc1cncc(-c2nc(NCCc3c[nH]c4ccccc34)c3ncn(C(C)C)c3n2)c1",
    "viability, T/C, %": 101
  },
  {
    "compound": "Cn1ncnc1C1c2n[nH]c(=O)c3cc(F)cc(c23)NC1c1ccc(F)cc1 (stereo unspecified) + Cc1cncc(-c2nc(NCCc3c[nH]c4ccccc34)c3ncn(C(C)C)c3n2)c1",
    "viability, T/C, %": 113
  },
  {
    "compound": "Cn1ncnc1C1c2n[nH]c(=O)c3cc(F)cc(c23)NC1c1ccc(F)cc1 (stereo unspecified) + CC(CO)NC(=O)c1cc(-c2ccc(Cl)cc2)nn(-c2cnn(C)c2)c1=O",
    "viability, T/C, %": 105
  },
  {
    "compound": "CC[C@@]1(O)C(=O)OCc2c1cc1n(c2=O)Cc2cc3c(CN(C)C)c(O)ccc3nc2-1 + CC(CO)NC(=O)c1cc(-c2ccc(Cl)cc2)nn(-c2cnn(C)c2)c1=O",
    "viability, T/C, %": 94.1
  }
]

query: Identify the measured viability, T/C of Cn1ncnc1C1c2n[nH]c(=O)c3cc(F)cc(c23)NC1c1ccc(F)cc1 (stereo unspecified) + Cc1ccccc1N=Nc1ccc(NC(=O)c2ccnn2C)c(C)c1 for 699152-130-R-J1-PDC complex spheroid growth.
result: 102

====

# Test system: 699152-130-R-J1-PDC complex spheroid growth
# protocol: Anticancer human tumor 699152-130-R-J1-PDC cell line growth inhibition [AhR]; active means viability on the fitted dose curve at most 10% of control; inactive means the rest;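 further: compound exposure lasted 7 days after spheroids had grown for 3 days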
# experimental.context: second compound 10 µM; first compound 3.16 µM
Your answer must be one of the following: active, inactive

Illustrative cases are given below, each with its answer.
[
  {
    "compound": "Nc1ccccc1NC(=O)c1ccc(CNC(=O)OCc2cccnc2)cc1 + Cc1cncc(-c2nc(NCCc3c[nH]c4ccccc34)c3ncn(C(C)C)c3n2)c1",
    "category": "active"
  },
  {
    "compound": "CC1COCCN1c1cc(C2(S(C)(=N)=O)CC2)nc(-c2ccnc3[nH]ccc23)n1 (stereo unspecified) + Cc1cncc(-c2nc(NCCc3c[nH]c4ccccc34)c3ncn(C(C)C)c3n2)c1",
    "category": "inactive"
  },
  {
    "compound": "Nc1ccccc1NC(=O)c1ccc(CNC(=O)OCc2cccnc2)cc1 + CC(CO)NC(=O)c1cc(-c2ccc(Cl)cc2)nn(-c2cnn(C)c2)c1=O",
    "category": "inactive"
  },
  {
    "compound": "COc1cccc2c1C(=O)c1c(O)c3c(c(O)c1C2=O)CC(O)(C(=O)CO)CC3OC1CC(N)C(O)C(C)O1 (stereo unspecified) + Cc1ccccc1N=Nc1ccc(NC(=O)c2ccnn2C)c(C)c1",
    "category": "active"
  },
  {
    "compound": "CC(C)c1c(-c2ccccc2)nc2c(C#N)c[nH]n2c1=O + Cc1cncc(-c2nc(NCCc3c[nH]c4ccccc34)c3ncn(C(C)C)c3n2)c1",
    "category": "active"
  }
]

Shifting focus to the compound that follows.
query: Test call, this compound: CC1(C)CCC(CN2CCN(c3ccc(C(=O)NS(=O)(=O)c4ccc(NCC5CCOCC5)c([N+](=O)[O-])c4)c(Oc4cnc5[nH]ccc5c4)c3)CC2)=C(c2ccc(Cl)cc2)C1 + Cc1ccccc1N=Nc1ccc(NC(=O)c2ccnn2C)c(C)c1
result: inactive
